Study system: human Cot/Tpl2 kinase (Homo sapiens)
Construct: human Cot/Tpl2 kinase construct encoding residues 30-398; 6His (N); made in house; host or cells: Sf9 insect cells, baculovirus system (BD Biosciences)
Run description: Tpl2/Cot kinase assay: GST-MEK1 phosphorylation detected by ELISA (DELFIA Eu)
Type: biochemical
Conditions used: 0.4 nM Tpl2, 35 nM GST-MEK1, 50 uM ATP, 1 h at 30° C.
Label Yes when IC50 is strictly below 0.4 µM; at or above that, label No.

N#Cc1cnc2ccc(NCc3ccc[n+]([O-])c3)cc2c1Nc1ccc(F)c(Cl)c1 ... Yes
CSc1ncc(CNc2cc(Cl)c3ncc(C#N)c(Nc4ccc(F)c(Cl)c4)c3c2)cn1 ... Yes
CC(C)(C)Nc1c(C#N)cnc2c(Br)cc(NCc3cnc[nH]3)cc12 ... No
N#Cc1cnc2c(Br)cc(NCc3ccoc3)cc2c1Nc1ccc(F)c(Cl)c1 ... No
N#Cc1cnc2c(F)cc(NCc3ccn[nH]3)cc2c1Nc1ccc(F)c(Cl)c1 ... Yes

stdin: Confirm or reject: IC50 of N#Cc1cnc2c(Cl)cc(NCC3=NCCN3)cc2c1Nc1ccc(F)c(Cl)c1 lies strictly below 0.4 µM
stdout: No

stdin: Confirm or reject: IC50 of CN(C)C(=O)CNc1ccc2ncc(C#N)c(Nc3ccc(F)c(Cl)c3)c2c1 lies strictly below 0.4 µM
stdout: No

stdin: Confirm or reject: IC50 of N#Cc1cnc2ccc(NCc3nccn3CC(=O)NC3CCNCC3)cc2c1Nc1ccc(F)c(Cl)c1 lies strictly below 0.4 µM
stdout: No

stdin: Confirm or reject: IC50 of CN(Cc1cn(CCC2CCCN2C)nn1)c1cc(Cl)c2ncc(C#N)c(Nc3ccc(F)c(Cl)c3)c2c1 (stereo not drawn) lies strictly below 0.4 µM
stdout: No

stdin: Confirm or reject: IC50 of N#Cc1cnc2c(-c3ccsc3)cc(NCc3cccnc3)cc2c1Nc1cccc(Cl)c1 lies strictly below 0.4 µM
stdout: No

stdin: Confirm or reject: IC50 of Cc1cccc(CNc2cc(Cl)c3ncc(C#N)c(Nc4ccc(F)c(Cl)c4)c3c2)[n+]1[O-] lies strictly below 0.4 µM
stdout: Yes

stdin: Confirm or reject: IC50 of N#Cc1cnc2ccc(NCc3ccccc3O)cc2c1Nc1ccc(F)c(Cl)c1 lies strictly below 0.4 µM
stdout: No

stdin: Confirm or reject: IC50 of N#Cc1cnc2ccc(NCc3ccc(F)cc3)cc2c1Nc1ccc(F)c(Cl)c1 lies strictly below 0.4 µM
stdout: No

stdin: Confirm or reject: IC50 of N#Cc1ccc(OCC(=O)O)c(CNc2ccc3ncc(C#N)c(Nc4ccc(F)c(Cl)c4)c3c2)c1 lies strictly below 0.4 µM
stdout: No

stdin: Confirm or reject: IC50 of Cc1c(CNc2cc(F)c3ncc(C#N)c(Nc4ccc(F)c(Cl)c4)c3c2)ncn1C lies strictly below 0.4 µM
stdout: Yes

stdin: Confirm or reject: IC50 of N#Cc1cnc2ccc(NCc3cccc(OC(F)(F)F)c3)cc2c1Nc1ccc(F)c(Cl)c1 lies strictly below 0.4 µM
stdout: No

stdin: Confirm or reject: IC50 of N#Cc1cnc2c(Cl)cc(NCc3cnc[nH]3)cc2c1Nc1ccc(F)c(Cl)c1 lies strictly below 0.4 µM
stdout: Yes

stdin: Confirm or reject: IC50 of C[S+]([O-])c1cc(NCc2cnc[nH]2)cc2c(Nc3ccc(F)c(Cl)c3)c(C#N)cnc12 (stereo not drawn) lies strictly below 0.4 µM
stdout: Yes

stdin: Confirm or reject: IC50 of Cc1[nH]cnc1CNc1ccc2ncc(C#N)c(Nc3ccc(F)c(Cl)c3)c2c1 lies strictly below 0.4 µM
stdout: Yes

----------
Study system: human Cot/Tpl2 kinase (Homo sapiens)
Construct: human Cot/Tpl2 kinase construct encoding residues 30-398; 6His (N); made in house; host or cells: Sf9 insect cells, baculovirus system (BD Biosciences)
Run description: Tpl2/Cot kinase assay: GST-MEK1 phosphorylation detected by ELISA (DELFIA Eu)
Assay type: biochemical
Conditions used: Tpl2/Cot kinase, GST-MEK1 substrate, 50 uM ATP, 1 h at 30° C.; Table 2
pIC50: −log10 of the molar value.
Kind request: treat 7 as inclusive, so pIC50 at 7 or higher is rule met, anything lower is rule not met.

N#Cc1cnc2c(Cl)cc(NCc3cn(CCN4CCCCCC4)nn3)cc2c1Nc1ccc(Oc2ccccc2)cc1 ... rule not met
CNC1CCC(n2cc(CNc3cc(Cl)c4ncc(C#N)c(Nc5ccc(F)c(Cl)c5)c4c3)nn2)CC1 (stereo not shown) ... rule met
N#Cc1cnc2c(Cl)cc(NCc3cncc(C4(O)CCOCC4)c3)cc2c1Nc1ccc(F)c(Cl)c1 ... rule not met

stdin: Does pIC50 meet or surpass 7 for CC(C)N1CCC[C@H]1CCn1cc(CNc2cc(Br)c3ncc(C#N)c(Nc4ccc(F)c(Cl)c4)c3c2)nn1 ?
stdout: rule met

stdin: Does pIC50 meet or surpass 7 for N#Cc1cnc2c(Cl)cc(NCc3cn(C4CCN(CCO)CC4)nn3)cc2c1Nc1ccc(F)c(Cl)c1 ?
stdout: rule met

----------
Study system: human Cot/Tpl2 kinase (Homo sapiens, UniProt P41279)
Construct: human Cot/Tpl2 kinase construct encoding residues 30-398; 6His (N); made in house; host or cells: Sf9 insect cells, baculovirus system (BD Biosciences)
Sequence (P41279 30-398): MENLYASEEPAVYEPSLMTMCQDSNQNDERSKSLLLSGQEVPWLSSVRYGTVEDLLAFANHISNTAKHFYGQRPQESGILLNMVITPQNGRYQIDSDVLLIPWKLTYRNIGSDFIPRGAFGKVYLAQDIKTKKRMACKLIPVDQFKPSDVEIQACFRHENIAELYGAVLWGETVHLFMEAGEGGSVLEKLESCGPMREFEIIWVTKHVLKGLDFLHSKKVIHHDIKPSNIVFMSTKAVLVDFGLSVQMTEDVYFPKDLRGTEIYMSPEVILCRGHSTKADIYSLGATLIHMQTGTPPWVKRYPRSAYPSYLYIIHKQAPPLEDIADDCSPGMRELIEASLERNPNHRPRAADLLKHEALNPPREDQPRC
Run description: Tpl2/Cot kinase assay: GST-MEK1 phosphorylation detected by ELISA (DELFIA Eu)
Assay type: biochemical
Conditions used: 0.4 nM Tpl2, 35 nM GST-MEK1, 50 uM ATP, 1 h at 30° C.
Description: Sf9 cells expressing the kinase were lysed in 50 mM NaPhosphate pH=8; 300 mM NaCl; 5 mM imidazole; 0.1 mM EGTA; 25 mM beta-glycerophosphate; 1% TX-100, 1% glycerol; 6 mM beta-mercaptoethanol and protease inhibitors. […] Tpl2/Cot activity was directly assayed using GST-MEK1 as a substrate. GST-MEK1 phosphorylation on serine residues 217 and 221 was detected by ELISA. […] After a final wash, Eu detection solution was added to each well and the Eu signal was measured in a Wallac Victor^2 Multilabel Counter. […]
Measurement type: pIC50
Note on units: pIC50 is unitless, being -log10 of a concentration expressed in mol/L.

Use the examples below as a reference point.
N#Cc1cnc2ccc(NCc3cccc(O)c3)cc2c1Nc1ccc(F)c(Cl)c1 ... 6.27
CN(C)CCNS(=O)(=O)c1ccc(CNc2ccc3ncc(C#N)c(Nc4ccc(F)c(Cl)c4)c3c2)cc1 ... 6.27

get_value(item= N#Cc1cnc2ccc(NCc3cccc(Br)n3)cc2c1Nc1ccc(F)c(Cl)c1 , readout=pIC50) returns 6.57

----------
Study system: human Cot/Tpl2 kinase (Homo sapiens)
Construct: human Cot/Tpl2 kinase construct encoding residues 30-398; 6His (N); made in house; host or cells: Sf9 insect cells, baculovirus system (BD Biosciences)
Run description: Tpl2/Cot kinase assay: GST-MEK1 phosphorylation detected by ELISA (DELFIA Eu)
Format: biochemical
Conditions used: Table 2; Tpl2/Cot kinase, GST-MEK1 substrate, 50 uM ATP
pIC50: −log10 of the molar value.
Kind request: treat 7 as inclusive, so pIC50 at 7 or higher is y, anything lower is n.

CCN(C[C@@H]1CCCN1)c1cc(Cl)c2ncc(C#N)c(Nc3ccc(F)c(Cl)c3)c2c1 [Example 640] ... n
C[Si](C)(C)c1n[nH]nc1CNc1cc(Br)c2ncc(C#N)c(Nc3ccc(F)c(Cl)c3)c2c1 [Example 435] ... y
N#Cc1cnc2ccc(NCc3ccc(OCCN4CCOCC4)nc3)cc2c1Nc1ccc(F)c(F)c1 [Example 344] ... n
N#Cc1cnc2c(Cl)cc(NCc3csnn3)cc2c1Nc1ccc(F)c(Cl)c1 [Example 440] ... y
CC(C)(C)Nc1c(C#N)cnc2ccc(NCc3ccn[nH]3)cc12 [Example 405] ... n
CN(C)CCCn1cc(CNc2cc(Cl)c3ncc(C#N)c(Nc4ccc(F)c(Cl)c4)c3c2)nn1 [Example 514] ... y

stdin: Does pIC50 meet or surpass 7 for CN1CCN(C(=O)CNc2cc(Cl)c3ncc(C#N)c(Nc4ccc(F)c(Cl)c4)c3c2)CC1 [Example 468] ?
stdout: n

----------
Study system: human Cot/Tpl2 kinase (Homo sapiens, UniProt P41279)
Construct: human Cot/Tpl2 kinase construct encoding residues 30-398; 6His (N); made in house; host or cells: Sf9 insect cells, baculovirus system (BD Biosciences)
Run description: Tpl2/Cot kinase assay: GST-MEK1 phosphorylation detected by ELISA (DELFIA Eu)
Assay type: biochemical
Conditions used: 0.4 nM Tpl2, 35 nM GST-MEK1, 50 uM ATP, 1 h at 30° C.
Below: a set of entries, each annotated with reported pIC50.
Note on units: pIC50 is unitless, being -log10 of a concentration expressed in mol/L.

N#Cc1cnc2c(Br)cc(NCc3nn[nH]c3CO)cc2c1Nc1ccc(F)c(Cl)c1 [Example 294] ... 6.30
Cc1nn(C)c(N2CCOCC2)c1CNc1ccc2ncc(C#N)c(Nc3ccc(F)c(Cl)c3)c2c1 [Example 38] ... 5.59
N#Cc1cnc2c(Br)cc(NCc3cn(CCN)nn3)cc2c1Nc1ccc(F)c(Cl)c1 [Example 304] ... 7.77
CN(C)C(=O)c1cc(NCc2ccc(CO)o2)cc2c(Nc3ccc(F)c(Cl)c3)c(C#N)cnc12 [Example 88] ... 6.60

pIC50 for human Cot/Tpl2 kinase (Homo sapiens, UniProt P41279) with input COc1cc(NCc2cccnc2)cc2c(Nc3ccc(F)c(Cl)c3)c(C#N)cnc12 [Example 28] equals 5.96

pIC50 for human Cot/Tpl2 kinase (Homo sapiens, UniProt P41279) with input Cc1nc(CNc2cc(Cl)c3ncc(C#N)c(Nc4ccc(F)c(Cl)c4)c3c2)cn1CC(N)=O [Example 191] equals 7.19

pIC50 for human Cot/Tpl2 kinase (Homo sapiens, UniProt P41279) with input Cc1ccc[n+]([O-])c1CNc1cc(Cl)c2ncc(C#N)c(Nc3ccc(F)c(Cl)c3)c2c1 [Example 196] equals 7.18

pIC50 for human Cot/Tpl2 kinase (Homo sapiens, UniProt P41279) with input N#Cc1cc(CNc2ccc3ncc(C#N)c(Nc4ccc(F)c(Cl)c4)c3c2)ccc1OCC(=O)O [Example 34] equals 6.59
